Molecular target: T1, Biotinylated human DLL3 (human, UniProt Q9NYJ7 27-492, biotinylated (site not stated))
T1 construct: also called Delta-like ligand 3; Delta Like Canonical Notch Ligand 3
T1 sequence (looked up): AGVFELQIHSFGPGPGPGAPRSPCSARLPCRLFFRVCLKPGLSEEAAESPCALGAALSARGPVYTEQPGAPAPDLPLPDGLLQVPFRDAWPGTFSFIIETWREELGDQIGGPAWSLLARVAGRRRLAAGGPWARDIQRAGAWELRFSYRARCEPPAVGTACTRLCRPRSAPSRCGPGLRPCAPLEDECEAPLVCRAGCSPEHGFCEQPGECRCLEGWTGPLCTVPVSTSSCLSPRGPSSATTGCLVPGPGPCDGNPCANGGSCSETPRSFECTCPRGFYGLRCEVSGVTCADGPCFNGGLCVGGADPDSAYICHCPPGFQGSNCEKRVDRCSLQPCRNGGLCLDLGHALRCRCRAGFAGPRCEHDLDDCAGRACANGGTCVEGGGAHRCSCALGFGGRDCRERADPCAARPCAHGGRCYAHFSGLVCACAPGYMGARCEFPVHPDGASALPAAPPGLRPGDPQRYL
Experiment: SPR, biotin-hDLL3 on SA chip
Bridge positions count the residues as written; N and C are the ends. Square brackets hold non-standard residues; d marks the D form. * marks the point of attachment. DOTA = O=C(O)CN1CCN(CC(=O)O)CCN(CC(=O)*)CCN(CC(=O)O)CC1; 1Nal = N[C@@H](Cc1cccc2ccccc12)C(=O)O; Chg = N[C@H](C(=O)O)C1CCCCC1; αMeP = C[C@@]1(C(=O)O)CCCN1; dNMeA = CN[C@H](C)C(=O)O; Aze = O=C(O)[C@@H]1CCN1
Bucketed by reported Kd, buckets being low (below 3 nM), intermediate (3 nM to below 30 nM), high (30 nM or more)

# binder, class-assignment
records = [
    ("Ac-[Chg][dS]DC[1Nal]LQWNCPFD[dK](DOTA)-NH2 (disulfide 4-10) [Cpd #106]", "low"),
    ("Ac-MSDCWLQWNC[Aze]FD[dK](DOTA)-NH2 (disulfide 4-10) [Cpd #48]", "high"),
    ("Ac-MSDCWLQ[1Nal]NCPFD[dK](DOTA)-NH2 (disulfide 4-10; SMILES CSCC[C@H](NC(C)=O)C(=O)N[C@@H](CO)C(=O)N[C@@H](CC(=O)O)C(=O)N[C@H]1CSSC[C@@H](C(=O)N2CCC[C@H]2C(=O)N[C@@H](Cc2ccccc2)C(=O)N[C@@H](CC(=O)O)C(=O)N[C@H](CCCCNC(=O)CN2CCN(CC(=O)O)CCN(CC(=O)O)CCN(CC(=O)O)CC2)C(N)=O)NC(=O)[C@H](CC(N)=O)NC(=O)[C@H](Cc2cccc3ccccc23)NC(=O)[C@H](CCC(N)=O)NC(=O)[C@H](CC(C)C)NC(=O)[C@H](Cc2c[nH]c3ccccc23)NC1=O) [Cpd #61]", "low"),
    ("Ac-[dA]SDCWLQWNCPFD-NH2 (disulfide 4-10) [Cpd #8]", "intermediate"),
    ("Ac-MSDCWLQWNC[αMeP]FD[dK](DOTA)-NH2 (disulfide 4-10) [Cpd #51]", "low"),
    ("Ac-MSDCW[Chg]QWNCPFD[dK](DOTA)-NH2 (disulfide 4-10) [Cpd #71]", "intermediate"),
    ("Ac-SDCWLQWNCPFD[dK](DOTA)-NH2 (disulfide 3-9) [Cpd #31]", "intermediate"),
    ("Ac-[Chg]SDC[1Nal]LQWNC[dNMeA]FD[dK](DOTA)-NH2 (disulfide 4-10) [Cpd #94]", "low"),
    ("Ac-MSDCW[dA]QWNCPFD-NH2 (disulfide 4-10; SMILES CSCC[C@H](NC(C)=O)C(=O)N[C@@H](CO)C(=O)N[C@@H](CC(=O)O)C(=O)N[C@H]1CSSC[C@@H](C(=O)N2CCC[C@H]2C(=O)N[C@@H](Cc2ccccc2)C(=O)N[C@@H](CC(=O)O)C(N)=O)NC(=O)[C@H](CC(N)=O)NC(=O)[C@H](Cc2c[nH]c3ccccc23)NC(=O)[C@H](CCC(N)=O)NC(=O)[C@@H](C)NC(=O)[C@H](Cc2c[nH]c3ccccc23)NC1=O) [Cpd #12]", "high"),
]

Ref: patent US20250186541A1
